Target: Prothrombin (Homo sapiens, UniProt P00734)
Experiment: Inhibition of human thrombin
measurementName: Ki (µM)

// worked examples, Ki included
{"chemicalStructure": "N=C(N)c1cccc(CN2CC[C@H](NS(=O)(=O)c3ccc4ccc(N)cc4c3)C2=O)c1", "targetOrSystem": "Prothrombin (Homo sapiens, UniProt P00734)", "Ki / µM": 2.6}
{"chemicalStructure": "COc1ccc2ccc(S(=O)(=O)N(CC(N)=O)[C@H]3CCN(Cc4cccc(C(=N)N)c4)C3=O)cc2c1", "targetOrSystem": "Prothrombin (Homo sapiens, UniProt P00734)", "Ki / µM": 1.44}
{"chemicalStructure": "Cc1ccc2ccc(S(=O)(=O)N[C@H]3CCN(Cc4cccc(C(=N)N)c4)C3=O)cc2c1", "targetOrSystem": "Prothrombin (Homo sapiens, UniProt P00734)", "Ki / µM": 1.34}
{"chemicalStructure": "CCOc1ccc2ccc(S(=O)(=O)N[C@H]3CCN(Cc4cccc(C(=N)N)c4)C3=O)cc2c1", "targetOrSystem": "Prothrombin (Homo sapiens, UniProt P00734)", "Ki / µM": 1.9}
{"chemicalStructure": "COc1ccc2ccc(S(=O)(=O)N[C@H]3CCN(Cc4csc(C(=N)N)c4)C3=O)cc2c1", "targetOrSystem": "Prothrombin (Homo sapiens, UniProt P00734)", "Ki / µM": 1.3}

a. COc1ccc2ccc(S(=O)(=O)N(Cc3cc[nH]n3)[C@H]3CCN(Cc4cccc(C(=N)N)c4)C3=O)cc2c1
b. COc1cccc(-c2ccc(S(=O)(=O)N[C@H]3CCN(Cc4cccc(C(=N)N)c4)C3=O)cc2)c1
c. COc1ccc2ccc(S(=O)(=O)N(Cc3ccsc3)[C@H]3CCN(Cc4cccc(C(=N)N)c4)C3=O)cc2c1
d. N=C(N)c1cccc(CNC(=O)CNS(=O)(=O)c2ccc3ccccc3c2)c1
Could you please order the items by Ki, going from the lowest number to the highest? Answer format: the labels, ordered as requested.
c, d, a, b

A. COc1ccc2ccc(S(=O)(=O)N[C@H]3CCN(Cc4ccnc(C(=N)N)c4)C3=O)cc2c1
B. COc1ccc2ccc(S(=O)(=O)N(Cc3cccs3)[C@H]3CCN(Cc4cccc(C(=N)N)c4)C3=O)cc2c1
I'm curious whether A or B has the smaller Ki number. Which is it? Answer by quoting the chosen item's label.
B
(B: 0.97 µM, A: 2.04 µM)

P. COc1ccc2ccc(S(=O)(=O)N[C@H]3CCN(Cc4cc(C(=N)N)cs4)C3=O)cc2c1
Q. COc1ccc2ccc(S(=O)(=O)N(Cc3ccccn3)[C@H]3CCN(Cc4cccc(C(=N)N)c4)C3=O)cc2c1
R. COc1ccc2ccc(S(=O)(=O)N(Cc3ccccc3)[C@H]3CCN(Cc4cccc(C(=N)N)c4)C3=O)cc2c1
Please list these compounds in decreasing order of Ki. Answer format: the labels, ordered as requested.
P, Q, R

###

Target: Prothrombin (Homo sapiens, UniProt P00734)
Test: Inhibition of human thrombin
// values below are reported Ki

// worked examples, Ki included
{"chemicalStructure": "N=C(N)c1cccc(CN2CCCC[C@H](NS(=O)(=O)c3ccc4ccccc4c3)C2=O)c1", "Ki": "> 4 µM"}
{"chemicalStructure": "N=C(N)c1cccc(CN2CC[C@H](NS(=O)(=O)c3ccc(Oc4ccccc4)cc3)C2=O)c1", "Ki": "> 4 µM"}
{"chemicalStructure": "N=C(N)c1cccc(CN2CC[C@H](NS(=O)(=O)c3ccc4ccc(Cl)cc4c3)C2=O)c1", "Ki": "1.2 µM"}

Give Ki (Prothrombin (Homo sapiens, UniProt P00734)) of the following compound: N=C(N)c1cccc(CN2CC[C@H](NS(=O)(=O)c3ccc(Cc4ccccc4)cc3)C2=O)c1
> 4 µM

Give Ki (Prothrombin (Homo sapiens, UniProt P00734)) of the following compound: COc1ccc2ccc(S(=O)(=O)N[C@H]3CCN(Cc4ccc(C(=N)N)o4)C3=O)cc2c1
> 4 µM

Give Ki (Prothrombin (Homo sapiens, UniProt P00734)) of the following compound: N=C(N)c1cccc(CN2CC[C@H](NS(=O)(=O)c3cccc4ccccc34)C2=O)c1
> 4 µM

###

Target: Prothrombin (Homo sapiens)
Assay: Inhibition of human thrombin
pKi: −log10 of the molar value.
// values below are reported pKi

// worked examples, pKi included
{"chemicalStructure": "N=C(N)c1cccc(CN2CC[C@H](NS(=O)(=O)c3ccc4cc(Cl)ccc4c3)C2=O)c1", "pKi": 5.82}
{"chemicalStructure": "N=C(N)c1cccc(CN2C[C@H](NS(=O)(=O)c3ccc4ccccc4c3)C2=O)c1", "pKi": "< 5.40"}
{"chemicalStructure": "N=C(N)c1cccc(CN2CCC[C@H](NS(=O)(=O)c3ccc4ccccc4c3)C2=O)c1", "pKi": "< 5.40"}
{"chemicalStructure": "COc1ccc2ccc(S(=O)(=O)N(CCC(N)=O)[C@H]3CCN(Cc4cccc(C(=N)N)c4)C3=O)cc2c1", "pKi": 5.82}
{"chemicalStructure": "CNc1ccc2ccc(S(=O)(=O)N[C@H]3CCN(Cc4cccc(C(=N)N)c4)C3=O)cc2c1", "pKi": "< 5.40"}
{"chemicalStructure": "N=C(N)c1cccc(CN2CC[C@H](NS(=O)(=O)c3ccc4ccc(O)cc4c3)C2=O)c1", "pKi": "< 5.40"}

Record request: pKi value, item COc1ccc2ccc(S(=O)(=O)N(CC(=O)O)[C@H]3CCN(Cc4cccc(C(=N)N)c4)C3=O)cc2c1
< 5.40

Record request: pKi value, item N=C(N)c1cccc(CN2C[C@@H](NS(=O)(=O)c3ccc4ccccc4c3)CC2=O)c1
< 5.40

Record request: pKi value, item COc1ccc2ccc(S(=O)(=O)N[C@H]3CCN(Cc4ccc(C(=N)N)cc4)C3=O)cc2c1
< 5.40

Record request: pKi value, item COc1ccccc1-c1ccc(S(=O)(=O)N[C@H]2CCN(Cc3cccc(C(=N)N)c3)C2=O)cc1
< 5.40

Record request: pKi value, item N=C(N)c1cccc(CN2CC[C@H](NS(=O)(=O)c3cccc(-c4ccccc4)c3)C2=O)c1
< 5.40

###

// values below are reported pKi
Target: Prothrombin (Homo sapiens, UniProt P00734)
Test: Inhibition of human thrombin
pKi: −log10 of the molar value.

{"chemicalStructure": "N=C(N)c1cccc(CN2CC[C@H](NS(=O)(=O)c3ccc4ccccc4c3)C2=O)c1", "targetOrSystem": "Prothrombin (Homo sapiens, UniProt P00734)", "pKi": "< 5.40"}
{"chemicalStructure": "COc1ccc2ccc(S(=O)(=O)N[C@H]3CCN(Cc4coc(C(=N)N)c4)C3=O)cc2c1", "targetOrSystem": "Prothrombin (Homo sapiens, UniProt P00734)", "pKi": "< 5.40"}

Consider the additional compound presented here.
Record request: pKi value, item N=C(N)c1cccc(Cn2cc(CCc3ccc4ccccc4c3)c3ccccc32)c1
< 5.40
